Provenance of the data: paper PMC10397247

TARGET_ENTITY: T1, 4H497-AA
T1 chain: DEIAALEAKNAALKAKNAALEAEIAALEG
EXPERIMENT_SUMMARY: two-hybrid library CCmax;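 also: natural log of median RNA to DNA barcode read ratio; higher means stronger binding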
CONDITION_SUMMARY: mean of both orientations
MEASURE: interaction score

# BINDER, REPORTED_RESULT
measured = [
    ("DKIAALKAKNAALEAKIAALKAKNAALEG [4H2991-AA]", -1.91),
    ("DKIAALEAENAALKAKIAALKAENAALEG [4H2283-AA]", -1.45),
    ("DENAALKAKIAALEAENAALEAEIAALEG [4H1809-AA]", -1.51),
    ("DENAALEAEIAALKAKNAALKAEIAALKG [4H1146-AA]", -1.98),
    ("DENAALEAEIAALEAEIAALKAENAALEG [4H1035-AA]", -1.73),
    ("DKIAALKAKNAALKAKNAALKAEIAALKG [4H3066-AA]", -0.971),
    ("DKNAALEAKIAALKAKNAALEAKIAALKG [4H3446-AA]", -1.57),
]
